Hello, the source for this data is patent US20260042764A1, in case you need it.

target or system: Avi-KRAS G12D (2-169) GTP/RAF1 RBD-3xFLAG (51-131) (Homo sapiens, UniProt P01116, G12D)
Construct: Avi-KRAS G12D (2-169)
Sequence (P01116 2-169 isoform P01116-2 G12D): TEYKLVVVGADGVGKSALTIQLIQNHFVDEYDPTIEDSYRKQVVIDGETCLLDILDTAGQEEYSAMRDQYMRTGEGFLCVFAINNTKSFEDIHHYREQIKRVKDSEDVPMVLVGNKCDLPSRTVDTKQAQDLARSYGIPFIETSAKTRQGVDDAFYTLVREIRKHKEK
protocol description: Raf1-KRAS G12D-GTP disruption HTRF assay (Biological Example 3)
Format: binding
test settings: KRAS G12D, GTP-loaded
observable: IC50

Below: 8 compounds and their reported IC50.
CCN(c1nc(OC[C@@]23CCCN2C[C@H](F)C3)nc2c(F)c(-c3ccc(F)c4sc(N)c(C#N)c34)c(C(F)(F)F)cc12)[C@H]1CCN(C(=O)OC2CC(OC)C2)[C@@H]1C (stereo partly shown): 100 to 1000 nM
CN(C)C(=O)c1cc2n(n1)CCN(c1nc(OC[C@@]34CCCN3C[C@H](F)C4)nc3c(F)c(-c4ccc(F)c5sc(N)c(C#N)c45)c(C(F)(F)F)cc13)C2: 100 to 1000 nM
CCN(c1nc(OC[C@@]23CCCN2C[C@H](F)C3)nc2c(F)c(-c3ccc(F)c4sc(N)c(C#N)c34)c(C(F)(F)F)cc12)[C@H]1CC(=O)N(C)C1 (atropisomer, axis not shown): 100 to 1000 nM
CCN(c1nc(OC[C@@]23CCCN2C[C@H](F)C3)nc2c(F)c(-c3ccc(F)c4sc(N)c(C#N)c34)c(C(F)(F)F)cc12)[C@H]1C[C@H]2COCC(=O)N2C1 (atropisomer, axis not shown): ≤ 100 nM
CCC(=O)N1CC[C@@H](N(C)c2nc(OC[C@@]34CCCN3C[C@H](F)C4)nc3c(F)c(-c4ccc(F)c5sc(N)c(C#N)c45)c(C(F)(F)F)cc23)[C@H]1C (atropisomer, axis not shown): 100 to 1000 nM
CCN(c1nc(OC[C@@]23CCCN2C[C@H](F)C3)nc2c(F)c(-c3ccc(F)c4sc(N)c(C#N)c34)c(C(F)(F)F)cc12)[C@H]1C[C@@H]2COC(=O)N2C1 (atropisomer, axis not shown): ≤ 100 nM
CCN(c1nc(OC[C@@]23CCCN2C[C@H](F)C3)nc2c(F)c(-c3ccc(F)c4sc(N)c(C#N)c34)c(C(F)(F)F)cc12)C1C[C@@H](C)N(C(=O)C2CC2)C1 (stereo partly shown): 100 to 1000 nM
CCN(c1nc(OC[C@@]23CCCN2C[C@H](F)C3)nc2c(F)c(-c3ccc(F)c4sc(N)c(C#N)c34)c(C(F)(F)F)cc12)[C@@H]1CC(=O)N(C)C1: 100 to 1000 nM

# input Read off the recorded IC50 for CCN(c1nc(OC[C@@]23CCCN2C[C@H](F)C3)nc2c(F)c(-c3ccc(F)c4sc(N)c(C#N)c34)c(C(F)(F)F)cc12)[C@@H]1CC(=O)N(C2CC2)C1 [Compound 537]
# output ≤ 100 nM

# input Read off the recorded IC50 for CN(CC1COC1)c1nc(OC[C@@]23CCCN2C[C@H](F)C3)nc2c(F)c(-c3ccc(F)c4sc(N)c(C#N)c34)c(C(F)(F)F)cc12 (atropisomer, axis not shown)
# output 1000 to 10000 nM

* * *

target or system: Avi-KRAS G12D (1-169) GppNHp/RAF1 RBD-3xFLAG (52-151) (Homo sapiens, UniProt P01116, G12D)
Construct: Avi-KRAS G12D (1-169)
Sequence (P01116 1-169 isoform P01116-2 G12D): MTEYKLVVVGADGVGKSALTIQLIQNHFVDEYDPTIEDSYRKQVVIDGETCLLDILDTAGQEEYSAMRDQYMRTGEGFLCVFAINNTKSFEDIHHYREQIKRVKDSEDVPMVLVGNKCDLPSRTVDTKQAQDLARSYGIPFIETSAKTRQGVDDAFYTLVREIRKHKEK
protocol description: Raf1-KRAS G12D-GppNHP disruption HTRF assay (Biological Example 1)
Assay type: binding
test settings: KRAS G12D-GppNHp/RAF1 RBD HTRF
pIC50: −log10 of the molar value.
Form field: pIC50 (one value per entry).

Below: 4 compounds and their reported pIC50.
C[C@H]1N(C(=O)C2CC2)CC[C@@]1(C)N(C)c1nc(OC[C@@]23CCCN2C[C@H](F)C3)nc2c(F)c(-c3ccc(F)c4sc(N)c(C#N)c34)c(C(F)(F)F)cc12: 5.00 to 6.00
CCC(=O)N1CC(N(C)c2nc(OCC34CCCN3CC(F)C4)nc3c(F)c(-c4ccc(F)c5sc(N)c(C#N)c45)c(C(F)(F)F)cc23)CC1C (centres unmarked): 6.00 to 7.00
CN(c1nc(OC[C@@]23CCCN2C[C@H](F)C3)nc2c(F)c(-c3ccc(F)c4sc(N)c(C#N)c34)c(C(F)(F)F)cc12)[C@H]1C[C@H](CF)N(C(=O)C2CC2)C1: 6.00 to 7.00
CC(=O)N1CC[C@@](C)(N(C)c2nc(OC[C@@]34CCCN3C[C@H](F)C4)nc3c(F)c(-c4ccc(F)c5sc(N)c(C#N)c45)c(C(F)(F)F)cc23)[C@H]1C: 5.00 to 6.00

# input Read off the recorded pIC50 for N#Cc1c(N)sc2c(F)ccc(-c3c(C(F)(F)F)cc4c(N5CC6CCC(C5)N6C(=O)C5CC5)nc(OC[C@@]56CCCN5C[C@H](F)C6)nc4c3F)c12
# output 6.00 to 7.00
